Origin of measurements: the RepoRT retention time repository

- runDescription: Agilent ZORBAX 300 SB-C18, 150 × 1 mm, 3.5 µm; A: water + 0.01% heptafluorobutyric acid; B: acetonitrile + 0.01% heptafluorobutyric acid; gradient (min/%B) 0/0 100/90
- conditionInfo: stereoisomer not certain
measurementLabel: LC retention time (min)

molecule: O=C(O)CCn1c2c(c3ccccc31)CCCC2
readingUnit: min
obsValue: 14.3
--
molecule: O=C(NN=Cc1cc2ccccc2[nH]1)c1ccccc1
readingUnit: min
obsValue: 10.9
--
molecule: Cc1ccc2nc(-c3nn[nH]n3)ccc2c1
readingUnit: min
obsValue: 10.5
--
molecule: NC(=S)NN=Cc1c2ccccc2cc2ccccc12
readingUnit: min
obsValue: 13.7
--
molecule: COc1cc(C(=O)Nc2ccc(N3CCCC3=O)cc2)cc(OC)c1OC
readingUnit: min
obsValue: 10.8

[a] O=C1c2ccccc2C(O)(c2ccccc2)N1C(c1ccccc1)c1ccccc1 (configuration not stated)
[b] CNC(C)c1ccccc1 (configuration not stated)
Enquiry: Please choose the item with the lower LC retention time value from this pair: a and b The response must carry the label of the picked entry.
Return: b

[A] CC(C)(C)C(=O)NNc1ccccc1
[B] CC(C)c1cc[nH]c1-c1ccccc1
[C] CCN1CCCCC1
Enquiry: Arrange these molecules by their LC retention time, starting with the largest number. Order the labels as requested and give them as your answer.
Return: B, A, C

[P] NC(=O)CCCCCCCCCC(Cc1ccccc1)C(=O)O (configuration not stated)
[Q] COC(=O)c1cccc(C(=O)OC)n1
Enquiry: Task for the reader: decide whether P or Q has the larger LC retention time. Select an item and report its label.
Return: P
(P: 13.3 min, Q: 8.45 min)

[I] CCCOC(C)n1cccc1-c1ccccc1 (configuration not stated)
[II] COc1ccc(NC(=O)c2cc3ccccc3oc2=N)cc1
[III] Cc1ccc(C)nc1
Enquiry: Order by LC retention time, ascending. Answer by listing the labels in the order asked for.
Return: III, II, I
(III: 6.66 min, II: 10.1 min, I: 18 min)

----------
- runDescription: Agilent ZORBAX 300 SB-C18, 150 × 1 mm, 3.5 µm; A: water + 0.01% heptafluorobutyric acid; B: acetonitrile + 0.01% heptafluorobutyric acid; gradient (min/%B) 0/0 100/90
- conditionInfo: stereoisomer not certain
measurementLabel: LC retention time (min)

Please review the following examples before continuing.
compound: CN(C)C(=O)C1OC(C)(C)OC1C(=O)N(C)C (stereo not drawn)
measurementLabel: LC retention time
obsValue: 8.25
//
compound: CCCCN1CNC(=S)NC1
measurementLabel: LC retention time
obsValue: 7.45
//
compound: O=C(NCCc1c[nH]c2ccccc12)c1c[nH]c2ccccc12
measurementLabel: LC retention time
obsValue: 11.8

[A] CC(C)c1ccccc1NC(=S)NCCN1CCN(C(=S)Nc2ccccc2C(C)C)CC1
[B] CN(C)c1cccc(C(=O)O)c1
[C] OC1CCNCC1
[D] Nc1cc(N)cc(C(=O)O)c1
Enquiry: Please list the entries, largest LC retention time first. // rank by listing labels in the order requested
Return: A, B, D, C
(A: 12.5 min, B: 8.69 min, D: 4.34 min, C: 2.8 min)

----------
- runDescription: Agilent ZORBAX 300 SB-C18, 150 × 1 mm, 3.5 µm; A: water + 0.01% heptafluorobutyric acid; B: acetonitrile + 0.01% heptafluorobutyric acid; gradient (min/%B) 0/0 100/90
- conditionInfo: stereoisomer not certain
measurementLabel: LC retention time (min)

Below, each entry is followed by its recorded LC retention time result.
compound: CC(C)c1ccc(N)cc1
LC retention time, min: 9

compound: COC(=O)Cc1ccc(N)cc1N
LC retention time, min: 7.24

compound: c1ccc2c(c1)CCN2
LC retention time, min: 7.26

compound: O=C(O)CC(CC(=O)O)c1ccccn1
LC retention time, min: 5.88

compound: Nc1ccc2[nH]c3c(c2c1)CCCC3
LC retention time, min: 8.89

compound: O=C(CCN1C(=O)c2ccccc2C1=O)NCc1ccco1
LC retention time, min: 10.2

compound: COc1cc(Cc2cnc(N)nc2N)cc(OC)c1OC
LC retention time, min: 8.69

compound: Nc1cccc(N)c1
LC retention time, min: 5.85

compound: Cc1cccc(-c2nc(=S)[nH][nH]2)c1
LC retention time, min: 9.33

compound: CCCCN1CCCC1
LC retention time, min: 7.55

[A] CC(N)(CO)CO
[B] CN1C(=O)NC(c2ccc(O)cc2)C2=C1CN(Cc1ccccc1)C2=O (stereo unspecified)
Enquiry: Lower value for measured LC retention time? Options: A , B Your answer should be the label attached to the chosen record.
Return: A
(A: 3.29 min, B: 9.6 min)

[P] Nc1ccc(OCc2ccccc2)cc1
[Q] COc1ccc(-c2cc(=O)c3c(ccc4ccccc43)o2)cc1
[R] O=c1[nH][nH]c(=O)c2nccnc12
Enquiry: Please rank these compounds by LC retention time in descending order. In your reply, arrange the labels in the requested order.
Return: Q, P, R
(Q: 17 min, P: 9.84 min, R: 3.97 min)

[1] CCCCCCCCCN
[2] CCN(CC)CCN(CC)CC
Enquiry: Between 1 and 2 , whose measured LC retention time reads higher? Lab note: record the label of whichever item you select.
Return: 1
(1: 11 min, 2: 7.19 min)
